Item-by-item account of IC50, Human ENTPD2 NIH/3T3 Assay
Target: T1, human ENTPD2 expressed on cells (human, UniProt Q9Y5L3 1-495)
T1 sequence: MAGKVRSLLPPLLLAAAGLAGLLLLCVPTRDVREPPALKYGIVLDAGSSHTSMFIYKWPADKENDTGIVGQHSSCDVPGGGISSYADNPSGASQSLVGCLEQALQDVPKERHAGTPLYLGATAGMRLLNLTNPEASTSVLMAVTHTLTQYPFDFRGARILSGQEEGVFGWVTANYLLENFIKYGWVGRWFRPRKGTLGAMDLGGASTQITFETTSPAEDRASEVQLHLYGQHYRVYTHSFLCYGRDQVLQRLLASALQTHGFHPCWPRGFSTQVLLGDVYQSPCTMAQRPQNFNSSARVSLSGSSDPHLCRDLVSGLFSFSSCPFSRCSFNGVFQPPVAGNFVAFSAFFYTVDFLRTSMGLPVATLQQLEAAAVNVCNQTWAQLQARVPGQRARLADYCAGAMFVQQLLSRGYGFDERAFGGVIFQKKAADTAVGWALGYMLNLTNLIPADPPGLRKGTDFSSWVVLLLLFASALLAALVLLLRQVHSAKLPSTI
Assay: cell-based or functional assay
A number alone suffices; assume nM.

Binder	Observed
ANTI-HUMAN ENTPD2 MAB9 (antibody, human IgG1, lambda, V domains shown, also called Anti-ENTPD2 mAb9) VH: QVQLVQSGAEVKKPGSSVKVSCKASGGTFDSYAVSWVRQAPGQGLEWMGRIVPWLGHTQYAQKFQGRVTITADESTSTAYMELSSLRSEDTAVYYCARESPGYRYSFDVWDQGTLVTVSS VL: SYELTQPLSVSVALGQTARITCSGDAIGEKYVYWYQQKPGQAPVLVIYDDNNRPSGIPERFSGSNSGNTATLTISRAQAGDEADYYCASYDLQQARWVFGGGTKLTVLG	0.3

Okay, next one:
[ask] State, in one line, measured IC50, Human ENTPD2 NIH/3T3 Assay of ANTI-HUMAN ENTPD2 MAB8 (antibody, human IgG1, lambda, V domains shown, also called Anti-ENTPD2 mAb8) VH: QVQLQQSGPGLVKPSQTLSLTCAISGDSVSSSSAAWNWIRQSPSRGLEWLGRIYYRSKWYNDYAVSVKSRITINPDTSKNQFSLQLNSVTPEDTAVYYCARGSYVTSSYEGFDYWGQGTLVTVSS VL: SYELTQPLSVSVALGQTARITCSGDNLPEKYAYWYQQKPGQAPVLVIYDDNKRPSGIPERFSGSNSGNTATLTISRAQAGDEADYYCQSYGKWGWTWVFGGGTKLTVLG
[reply] 0.1
